All figures here come from paper PMC8910697.

assay: Pharmacokinetics after IP and PO dosing; assay type: in vivo, male Balb/c mice; details: male, Balb/c, mouse, plasma; PO, 10 mg/kg, 75:25 PG/PEG 400 formulation; read-out: Tmax PO (converted)
reported metric: Tmax (h)
Return type: number; implicit unit h.

In: Look up Tmax: N#Cc1ccc(NNC(=O)c2ccc(C(F)(F)F)cc2)c(C(F)(F)F)c1 [compound 70551]
Out: 8

---

Test: Pharmacokinetics after IP and PO dosing
Format: in vivo, male Balb/c mice
Settings: male, Balb/c, mouse, plasma; IP, 10 mg/kg; 70551 in 75:25 PG/PEG 400, 70619 in 20:80 Kolliphor EL; read-out: Cmax IP
Description: In order to characterize VPC-70619 as a drug candidate against N-myc, its pharmacokinetic (PK) characteristics were evaluated in Balb/c mice following intraperitoneal (IP) and peroral (PO) administrations. As presented in Figure 5, we determined the PK properties of VPC-70619 and compared it to the parental molecule, VPC-70551. […] The clearance of 70551 for PO delivery was extremely slow, and we could not determine the T1/2 in the experimental conditions used for this assay. […]
reported metric: Cmax (ng/mL)
Give a bare numeral; the unit ng/mL is implied.

N#Cc1ccc(NNC(=O)c2ccc(C(F)(F)F)cc2)c(C(F)(F)F)c1
6220

In: Reported Cmax, compound N#Cc1ccc(NNC(=O)c2ccc(C#N)c(Cl)c2)c(C(F)(F)F)c1 : ____
Out: 29500
